Hello, the source for this data is patent US20250230147A1, in case you need it.

Target: c-Cbl (Homo sapiens (Human), UniProt P22681)
Sequence (P22681 47-435): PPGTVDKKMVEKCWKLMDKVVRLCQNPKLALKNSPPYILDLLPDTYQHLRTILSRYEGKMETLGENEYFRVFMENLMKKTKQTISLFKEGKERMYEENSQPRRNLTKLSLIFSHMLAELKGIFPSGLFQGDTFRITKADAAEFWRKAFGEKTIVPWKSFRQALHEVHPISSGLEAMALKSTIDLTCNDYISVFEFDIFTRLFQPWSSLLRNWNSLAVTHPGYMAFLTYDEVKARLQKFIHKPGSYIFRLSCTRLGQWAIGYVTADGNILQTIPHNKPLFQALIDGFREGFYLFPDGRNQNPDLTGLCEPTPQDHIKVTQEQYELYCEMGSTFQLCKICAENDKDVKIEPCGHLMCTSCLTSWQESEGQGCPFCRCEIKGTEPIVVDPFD
Experiment: C-Cbl LCK Ub TR-FRET assay (c-cbl Lck HTRF)
Format: biochemical
measure: IC50

>>> reading("Cn1cnnc1[C@H](F)C1(c2cccc(N3Cc4c(cc(CN5CC(C)(CO)C5)cc4C(F)(F)F)C3=O)c2)CC1")
"93 nM"
>>> reading("Cn1cnnc1[C@H](F)C1(c2cccc(N3Cc4c(cc(CN5CC(C)(CF)C5)cc4C(F)(F)F)C3=O)c2)COC1")
"82 nM"
>>> reading("Cn1cnnc1[C@@H](F)C1(c2cccc(N3Cc4c(cc(CN5CCC[C@H](CO)C5)cc4C(F)(F)F)C3=O)c2)COC1")
"66 nM"
